Measured TGI, listed per entry for reference.
Tested on: OVCAR-4 ovarian
Experiment: NCI tumour cell line growth inhibition, 48 h
assayReadout: TGI

>>> print(df.to_string())
                                    molecule  systemundertest  assayreadout   measured
 0                           NCC#CCNCCCN1CC1  OVCAR-4 ovarian           TGI   > 100 µM
 1  COC(=O)C(=O)c1c2ccccc2n2ccc3c4ccccc4[nH]c3c12  OVCAR-4 ovarian           TGI    > 10 µM
 2     O=C(Nc1n[nH]c2nc(-c3ccco3)ccc12)C1CC1  OVCAR-4 ovarian           TGI    > 25 µM
 3       O=CN1CCN(C(=O)c2cc(Cl)cc(Cl)c2)C1=S  OVCAR-4 ovarian           TGI    33.4 µM
 4            O=C1c2ccccc2-c2nc3ccc(O)cc3n21  OVCAR-4 ovarian           TGI   > 100 µM
 5  COC(=O)C(C(=O)C(=O)NC1=C(Cl)C(=O)c2ccccc2C1=O)c1csc(-n2nc(-c3ccccc3)cc2-c2ccccc2)n1 (stereo unspecified)  OVCAR-4 ovarian           TGI   > 100 µM
 6  Cc1oc2c(C)c(O)c3c(c2c1C1(C)OCCO1)C(=O)C=C(Cl)C3=O  OVCAR-4 ovarian           TGI   > 100 µM
 7  CC(=O)N(C)c1ccc2c(ccc[n+]2[O-])c1[N+](=O)[O-]  OVCAR-4 ovarian           TGI   > 100 µM
 8  COc1ccc(N=c2ssc(C(=S)Nc3ccc(OC)cc3)c2S)cc1  OVCAR-4 ovarian           TGI   > 100 µM
 9  NC(=O)N/N=C(\C(=O)C(=O)Nc1ccc(Cl)c(C(F)(F)F)c1)c1nc2ccc(C(=O)c3ccccc3)cc2[nH]c1=O  OVCAR-4 ovarian           TGI   > 100 µM
10  C=C1C[C@@H](O)[C@@H](Br)C(C)(C)[C@]12CCC(C)(Cl)C(Br)C2 (stereo partly specified)  OVCAR-4 ovarian           TGI   > 100 µM
11  COC(=O)C1Cc2cccc(C)c2C1 (stereo unspecified)  OVCAR-4 ovarian           TGI   > 100 µM
12  COC(=O)C[C@@H]1C(C)(C)[C@@H]2O[C@@]34C[C@@H]2C(=O)[C@]1(C)[C@H]3CC[C@@]1(C)[C@H](c2ccoc2)OC(=O)C[C@]14O  OVCAR-4 ovarian           TGI   > 100 µM
13  Cc1ccc(S(=O)(=O)OC2=C/C(=N\c3onc(C)c3C)c3ccccc3C2=O)cc1  OVCAR-4 ovarian           TGI    29.9 µM
14  O=C1c2cc3c(cc2-c2c1c1ccc(Cl)cc1c(=O)n2C[C@H](O)[C@@H](O)[C@H](O)CO)OCO3  OVCAR-4 ovarian           TGI   > 100 µM
15  CC[C@@]1(O)C(=O)OCc2c1cc1n(c2=O)Cc2c-1nc1ccc(O)cc1c2CC[Si](C)(C)C  OVCAR-4 ovarian           TGI  0.0538 µM
16  COc1ccc(C(=O)N2CCc3c([nH]c4ccccc34)C2C(=O)O)o1 (stereo unspecified)  OVCAR-4 ovarian           TGI    > 10 µM
17               O=C1C(=O)c2ccccc2-c2ccccc21  OVCAR-4 ovarian           TGI    2.25 µM
18  COC(=O)C1C(O)CCC2CN3CCc4c([nH]c5cccc(OC)c45)C3CC21 (stereo unspecified)  OVCAR-4 ovarian           TGI   > 100 µM
19  O=C(O)c1ccc(O)c(N=Nc2cc(S(=O)(=O)O)c3ccccc3c2O)c1  OVCAR-4 ovarian           TGI   > 100 µM
20  Cc1cc(O)c(C(c2cccnc2)c2c(O)cc(C)[nH]c2=O)c(=O)[nH]1  OVCAR-4 ovarian           TGI   > 100 µM

---

Measured TGI, listed per entry for reference.
Test system: ACHN renal
Test: NCI tumour cell line growth inhibition, 48 h
assayReadout: TGI

>>> print(df.to_string())
                                    compound   measured
 0  C[C@]12CC[C@@H]3c4ccccc4CC[C@H]3[C@@H]1CC[C@@H]2O   > 100 µM
 1  CCCc1cc2cc(-n3nc(C)c4c3CC(C)(C)CC4=O)cc(NC3CCC(O)CC3)c2c(=O)[nH]1 (stereo unspecified)   > 100 µM
 2  O=C1C2=Cc3ccccc3OC2(O)Oc2cc(O)ccc21 (stereo unspecified)   > 100 µM
 3  C/C=C/C=N/N(C(=O)c1cc([N+](=O)[O-])cc([N+](=O)[O-])c1)C1=NC(c2ccccc2)C(c2ccccc2)=NN1 (stereo unspecified)   > 100 µM
 4  CCOC(=O)C(Cc1ccccc1)NC(=O)c1ccc(N=NN(C)C)cc1 (stereo unspecified)   > 100 µM
 5  O=C(Nc1ccccc1)Nc1cccc(-n2cc(-c3ccncc3)c(-c3ccc(O)c(Cl)c3)n2)c1    34.7 µM
 6  CN(c1ccccc1)S(=O)(=O)c1ccccc1[N+](=O)[O-]   > 100 µM
 7  CC(=O)O[C@H]1C(=O)O[C@@H]2C[C@H]3C(C)=CC(=O)[C@@H](O)[C@]3(C)[C@H]3[C@@]4(O)OC[C@]32[C@@H]1[C@@H](C)[C@H]4O   0.394 µM
 8        O=c1cc(-c2ccc(Cl)cc2)[nH]c2ncccc12   > 100 µM
 9                     N/C(=N\N=C\c1cccs1)NO   > 100 µM
10  CC1(C)C(O)C[C@]23CCC[C@](C)(C[C@@H](O)C12)C3 (stereo partly specified)   > 100 µM
11  O=C1c2cccnc2S(=O)N1Cc1ccccc1 (stereo unspecified)   > 100 µM
12  COc1ccccc1C(C1=C(O)COC1=O)c1cc2c(cc1OC(C)=O)OCO2 (stereo unspecified)   > 100 µM
13        CN=C1Nc2ccc(Cl)cc2C(c2ccccc2)=NN1C   > 100 µM
14  COC(=O)C(C)NP(=O)(OCc1ccc(Cn2cnc3c(=O)[nH]c(N)nc32)cc1)Oc1ccccc1 (stereo unspecified)   > 100 µM
15  CCCCCCCC/C=C\CCCCCCC(F)C(=O)O (stereo unspecified)  > 12.5 µM
16   COC(=O)c1ccc(N=NN(C)COc2ccc(C#N)cc2)cc1   > 100 µM
17  COc1ccc(C(c2ccc(C(C)C)cc(=O)c2O)c2ccc3cccnc3c2O)cc1 (stereo unspecified)    7.53 µM
18  O=C(O)c1ccc2c(c1Nc1ccccc1)C(=O)c1ccccc1C2=O   > 100 µM
19  Cc1c2c(nn1C(=O)c1nn(-c3ccc(Cl)cc3)cc1O)-c1ccccc1CC2   > 100 µM
20  COC1=NC(NC2OCC(O)C(O)C2O)=C(NC(C)=O)CN1C (stereo unspecified)   > 100 µM

---

Tested on: M14 melanoma
Labels: YES (active), NO (inactive)

In [3]: df
Out[3]:
                                   compound  classname
0  CCCc1cc2cc(-n3nc(C)c4c3CC(C)(C)CC4=O)cc(NC3CCC(O)CC3)c2c(=O)[nH]1 (centres undefined)        YES
1   Clc1cc(Cl)c(Cl)c(-c2nc(-c3cccnc3)cs2)c1         NO
2  CC1(C)CC(=O)C2=C(C1)NC(SSC1=C(C#N)C(c3ccc(F)cc3)C3=C(CC(C)(C)CC3=O)N1)=C(C#N)C2c1ccc(F)cc1 (centres undefined)         NO
3     O=C(Nc1n[nH]c2nc(-c3ccco3)ccc12)C1CC1         NO

---

Tested on: NCI-H522 lung
Test: NCI tumour cell line growth inhibition, 48 h
Measured TGI, listed per entry for reference.
assayReadout: TGI

>>> print(df.to_string())
                                    molecule  systemundertest  measured
 0  Nc1ncnc2c1nc(-c1ccccc1)n2C1OC(CO)C(O)C1O (stereo unspecified)    NCI-H522 lung  > 100 µM
 1  C=CCNC(=S)N1c2ccccc2NC(=O)CC1C (stereo unspecified)    NCI-H522 lung  > 100 µM
 2  Cc1ccc(OCC2OC(C#N)C(Oc3ccc(C)cc3)C2Oc2ccc(C)cc2)cc1 (stereo unspecified)    NCI-H522 lung  > 100 µM
 3    CCOC(=O)c1c(C)nc2ccc(Cl)cc2c1-c1ccccc1    NCI-H522 lung   36.6 µM
 4  CC(NC(=O)C(N)Cc1ccc(O)cn1)C(=O)O (stereo unspecified)    NCI-H522 lung  > 100 µM
 5                     CC#CS(=O)(=O)c1ccccc1    NCI-H522 lung   3.92 µM
 6  COc1ccc(-c2nn(-c3cccc(NC(=O)Nc4ccc(Cl)c(C(F)(F)F)c4)c3)cc2-c2ccncc2)cc1Cl    NCI-H522 lung   6.77 µM
 7  COC(=O)C[C@@H]1C(C)(C)[C@@H]2O[C@@]34C[C@@H]2C(=O)[C@]1(C)[C@H]3CC[C@@]1(C)[C@H](c2ccoc2)OC(=O)C[C@]14O    NCI-H522 lung  > 100 µM
 8     Cn1cccc1-c1cc(-c2cccs2)[nH]c(=O)c1C#N    NCI-H522 lung  > 100 µM
 9  CCOC(=O)/C(=C/c1ccc([N+](=O)[O-])cc1)C(=O)c1ccccc1    NCI-H522 lung   3.51 µM
10  CC(Sc1ccccc1)C(CO)(CO)[N+](=O)[O-] (stereo unspecified)    NCI-H522 lung   26.3 µM
11  COC1O[C@@H]2CCN3C(=O)[C@@H](OC(=O)c4ccc([N+](=O)[O-])cc4)[C@H]1C23 (stereo partly specified)    NCI-H522 lung  > 100 µM
12  O=S1(=O)OC(c2ccc(O)cc2)(c2ccc(O)cc2)c2ccccc21    NCI-H522 lung  > 100 µM
13              CC1(C)OC(C(N)=O)=C(C(N)=O)O1    NCI-H522 lung  > 100 µM
14  CC1(C)C(O)C[C@]23CCC[C@](C)(C[C@@H](O)C12)C3 (stereo partly specified)    NCI-H522 lung  > 100 µM
15  CC(=O)CCNc1ccc(-c2cc(-c3ccc(N(C)C)cc3)nc3ccc4ccccc4c23)cc1    NCI-H522 lung  > 100 µM
16  CCCCCC(O)[C@H]1C(=O)C[C@@H](O[Si](C)(C)C(C)(C)C)[C@@H]1/C=C/CCOCc1ccccc1 (stereo partly specified)    NCI-H522 lung     15 µM
17  CCC(C)C1NC(=O)C2CCCN2C(=O)C(CC2CO2)OC(=O)CCNC(=O)C(C)N(C)C(=O)C(C(C)C)N(C)C1=O (stereo unspecified)    NCI-H522 lung  > 100 µM
18  COC(=O)C(C)NP(=O)(OCc1ccc(Cn2cnc3c(=O)[nH]c(N)nc32)cc1)Oc1ccccc1 (stereo unspecified)    NCI-H522 lung  > 100 µM
19         O=C(O)C1(C(=O)O)CC1(C(=O)O)C(=O)O    NCI-H522 lung  > 100 µM
20  CC1=NN(C(=O)CC(=O)Nc2ccccc2Cl)C(=O)C1N=Nc1ccc(C(=O)O)cc1 (stereo unspecified)    NCI-H522 lung  > 100 µM
